Target: T1, Human IL-13 (human, UniProt P35225 35-146)
T1 construct: also called human interleukin 13 (Peprotech); the antigen
T1 sequence (P35225 35-146 limits assumed): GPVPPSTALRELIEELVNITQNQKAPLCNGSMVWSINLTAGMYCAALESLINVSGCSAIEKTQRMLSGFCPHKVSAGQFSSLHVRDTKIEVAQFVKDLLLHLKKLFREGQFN
Experiment: biochemical receptor-ligand inhibition assay, purified scFv titrated; the IL-13 receptor used is not named in Example 1
# IC50 values compiled below
Use nM as the unit, but write only the number.

Below are worked cases with known answers.
BINDER: 13NG0075 (scFv, V domains shown, purified scFv from the mini-recombination library; member of group m20; also called ZZ0SEE-A06; copies: 1 + 1) VH: QVQLVQSGAEVKKPGASVKVSCKASGYTFTNYGLSWVRQAPGQGLEWMGWINYDGGNTQYGQEFQGRVTMTTDTSTSTAYMELRSLRSDDTAVYYCARDSSSSWARWFFDLWGRGTLVTVSS VL: SYVLTQPPSVSVAPGKTARIPCGGNMVGARLVHWYQQKPGQAPVLVIMDDIDRPSGIPERFSGSNSGNTATLTISRVEAGDEADYYCQVWDTGSRPVVFGGGTKLTVL
ENDPOINT_UNIT: nM
IC50: 9.65

BINDER: 13NG0069 (scFv, V domains shown, purified scFv from the mini-recombination library; member of group m20; also called ZZ0SEA-A03; copies: 1 + 1) VH: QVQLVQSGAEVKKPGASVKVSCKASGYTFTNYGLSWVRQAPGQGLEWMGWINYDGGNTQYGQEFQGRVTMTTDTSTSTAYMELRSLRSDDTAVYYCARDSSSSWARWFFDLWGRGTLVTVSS VL: SYVLTQPPSVSVAPGKTARIPCGGNMVGARLVHWYQQKPGQAPVLIIMDDIDRPSGIPERFSGSNSGNTATLTISRVEAGDEADYYCQVWDTGSRPVVFGGGTKLTVL
ENDPOINT_UNIT: nM
IC50: 7.85

Next item in the queue.
Need IC50, item BAK1183H4 antibody (antibody, V domains shown, also called 1183H04; BAK1183H04) VH: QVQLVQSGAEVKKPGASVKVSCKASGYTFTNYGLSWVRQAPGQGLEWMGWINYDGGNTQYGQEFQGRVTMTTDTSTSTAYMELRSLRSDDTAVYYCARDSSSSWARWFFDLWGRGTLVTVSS VL: SYVLTQPPSVSVAPGKTARIPCGGNIIGSKLVHWYQQKPGQAPVLVIYDDGDRPSGIPERFSGSNSGNTATLTISRVEAGDEADYYCQVWDTGSDPVVFGGGTKLTVL
40.6
